- Tested on: MARIMO;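 further: after 48 h exposure read by CellTiter-Glo luminescence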
- EXPERIMENT_SUMMARY: cell viability relative to vehicle control; higher = less cytotoxic
- REPORTED_CONDITIONS: 10 µM; SRSF2 genotype: SRSF2 wt/wt
Counter-ions that a name gives are not always drawn.

>  <COMPOUND>
Clc1ccc(C2(c3ccc(-c4cn[nH]c4)cc3)CCNCC2)cc1

>  <cell viability, %>
45

$$$$
>  <COMPOUND>
CN(C)C(=O)CCSC(SCCC(=O)O)c1cccc(/C=C/c2ccc3ccc(Cl)cc3n2)c1 (stereo not drawn)

>  <cell viability, %>
111

$$$$
>  <COMPOUND>
Nc1ccn([C@@H]2O[C@H](CO)[C@@H](O)[C@H]2O)c(=O)n1

>  <cell viability, %>
89.9

$$$$
>  <COMPOUND>
Cc1c(-c2ccc(C(N)=O)c3[nH]c4cc(C(C)(C)O)ccc4c23)cccc1-n1cnc2ccccc2c1=O

>  <cell viability, %>
66.2

$$$$
>  <COMPOUND>
CN(CCOc1ccc(CC2SC(=O)NC2=O)cc1)c1ccccn1 (stereo not drawn) [Rosiglitazone (Avandia)]

>  <cell viability, %>
101

$$$$
>  <COMPOUND>
CNC(=O)c1nn(C)c2c1C(C)(C)Cc1cnc(Nc3ccc(N4CCN(C)CC4)cc3)nc1-2

>  <cell viability, %>
22.6

$$$$
>  <COMPOUND>
NCCc1c[nH]cn1 [Histamine]

>  <cell viability, %>
93

$$$$
>  <COMPOUND>
Cc1cnc(-c2cc(N3CCN(C(=O)CCS(C)(=O)=O)CC3)ncc2Cl)c(C)c1

>  <cell viability, %>
110

$$$$
>  <COMPOUND>
Cc1cc(C(C)Nc2ccccc2)c2nc(N3CCOCC3)cc(=O)n2c1 (stereo not drawn)

>  <cell viability, %>
90.4

$$$$
>  <COMPOUND>
COc1cc2c(c(OC)c1OC)-c1c(cc3c(c1OC)OCO3)CC(C)C(C)C2 (stereo not drawn)

>  <cell viability, %>
86

$$$$
>  <COMPOUND>
CC(=O)OCc1ccccc1 [Benzyl acetate]

>  <cell viability, %>
105

$$$$
>  <COMPOUND>
CN1C(=O)c2sccc2N(C)c2nc(Nc3ccc(S(N)(=O)=O)cc3)ncc21

>  <cell viability, %>
25.9

$$$$
>  <COMPOUND>
COc1ccccc1OCC(O)CN1CCN(CC(=O)Nc2c(C)cccc2C)CC1 (stereo not drawn) [Ranolazine dihydrochloride]

>  <cell viability, %>
103

$$$$
>  <COMPOUND>
CCCCC(=O)O[C@H]1CC[C@H]2[C@@H]3CCc4cc(O)ccc4[C@H]3CC[C@]12C [Estradiol valerate]

>  <cell viability, %>
69.3

$$$$
>  <COMPOUND>
Cc1cccc(C)c1OCC(=O)N[C@@H](Cc1ccccc1)[C@@H](O)C[C@H](Cc1ccccc1)NC(=O)[C@H](C(C)C)N1CCCNC1=O

>  <cell viability, %>
98.2

$$$$
>  <COMPOUND>
COc1ccc(C(=O)CC(=O)c2ccc(C(C)(C)C)cc2)cc1

>  <cell viability, %>
92.6

$$$$
>  <COMPOUND>
Cc1ncc([N+](=O)[O-])n1CC(O)CCl (stereo not drawn)

>  <cell viability, %>
104

$$$$
>  <COMPOUND>
COc1cc2c3cc1Oc1c(OC)c(OC)cc4c1[C@@H](Cc1ccc(O)c(c1)Oc1ccc(cc1)C[C@@H]3N(C)CC2)N(C)CC4 [Berbamine (dihydrochloride)]

>  <cell viability, %>
72.8

$$$$

The values you see were collected from the supplement of paper PMC10981050.
